Particulars: buffer; pH 7.4; 200.0 µM
Property measured: log10 of solubility kinetic (log10 of the value in mg/mL)
Values are log10 of solubility kinetic in mg/mL.

Solved entries (count: 4):
Compound	Val
CCOC(=O)NC(=O)CSc1ccc2ccccc2n1	-1.37
CC(CN1CCOCC1)OC(=O)c1cccc(Cl)c1.Cl (configuration not stated)	-1.36
CN(C)CCNC(=O)C(=O)Nc1cc2c3c(c1)CCC(=O)N3CCC2	-1.29
CC(OC(=O)c1ccc2noc(-c3ccccc3)c2c1)C(N)=O (configuration not stated)	-1.33

Would you kindly share the measured log10 of solubility kinetic for CCC(=O)Nc1ccc(NC(=S)NC(=O)/C=C/c2ccco2)cc1 ? -2.52

---

Particulars: buffer; pH 7.4; 200.0 µM
// label = Met if solubility kinetic is not less than 8 µg/mL, otherwise Not met

Solved cases below.
Compound	Classification
COc1ccc(OC)c(-n2c(SCC(=O)NCC3CCCO3)nc3ccccc3c2=O)c1 (configuration not stated)	Met
Cc1ccc(NC(=O)N2CCCCCC2)cc1	Met
COC(=O)C1=C2SCC(=O)N2C(N)=C(C#N)C1	Met

Form field: solubility kinetic at least 8 µg/mL? Entry: CCN(CC)CCN(C(=O)/C=C/c1cccs1)c1nc2ccc(F)cc2s1.Cl Not met

Reported solubility kinetic reaches at least 8 µg/mL for Cc1ccc(C(=O)CN2C(=O)NC3(CCCCC3C)C2=O)s1 (configuration not stated) ? Met

Please check the record Cc1ccccc1S(=O)(=O)Nc1ncnc2sccc12 and state if its solubility kinetic is at or above 8 µg/mL. Met

Is the recorded value of solubility kinetic equal to or greater than 8 µg/mL for this compound? CN(C)NC(=O)c1csnc1-c1c(Cl)cccc1Cl Met

Check if solubility kinetic >= 8 µg/mL (inclusive). Item: COc1cc(SC)ccc1C(=O)Nc1cccc(C)n1 Not met

In plain terms: is recorded solubility kinetic at least 8 µg/mL for O=C(CNC(=O)c1ccccc1)OCC(=O)c1ccccc1Cl ? Met

Dear colleague, could you confirm whether CC(c1ccccc1)n1c(CCCO)nc2ccccc21 (configuration not stated) has solubility kinetic at or above 8 µg/mL? Met

Entry CCCc1cc(=O)[nH]c(SCC(=O)Nc2ccc(OC)c(S(=O)(=O)N3CCCCC3)c2)n1 : is its solubility kinetic no less than 8 µg/mL? Met

Threshold query (solubility kinetic >= 8 µg/mL) on Cn1cccc1C(=O)OCC(=O)Nc1sccc1C#N Not met

Given the entry CCOC(=O)C1=C(C)OC(N)=C(C#N)C1c1ccccc1 (configuration not stated) , answer whether its solubility kinetic meets or surpasses 8 µg/mL. Met

// inclusive: solubility kinetic at least 8 µg/mL? input: Cc1nccn1Cc1ccccc1 Met

Please indicate if the recorded solubility kinetic for CC(=O)Cn1ncc(N2CCOCC2)c(Cl)c1=O meets or exceeds 8 µg/mL. Met

Evaluate CCCCC(=O)N(CCOC)c1nnc(-c2cccnc2)s1 : solubility kinetic at minimum 8 µg/mL? Met

Textbook exercise: given the entry O=C(COC(=O)c1cccs1)NCc1cccs1 , state whether its solubility kinetic is greater than or equal to 8 µg/mL. Met

# check: solubility kinetic of COc1ccc(S(=O)(=O)NC(C)C(=O)NCc2ccncc2)cc1Cl (configuration not stated) is greater than or equal to 8 µg/mL Met

Assess whether reported solubility kinetic for CC(=O)NC(C)CCc1ccccc1 (configuration not stated) sits at 8 µg/mL or higher. Met

Is solubility kinetic at least 8 µg/mL? Consider CC(=O)NCCc1nc2ccccc2n1CCOc1ccccc1C Met

Threshold query (solubility kinetic >= 8 µg/mL) on O=C1CNC(=S)N1CCOc1ccccc1 Met

// inclusive: solubility kinetic at least 8 µg/mL? input: O=C(Nc1nc2ccccc2c(=O)s1)c1ccc(F)cc1Cl Not met

Hey, just so you know, these numbers are from PubChem BioAssay AID1996.
